molecular target: Vacuolar aminopeptidase 1 (Saccharomyces cerevisiae (strain ATCC 204508 / S288c), UniProt P14904); assay: LAP4-GFP modulation potency, analog picks, SAR follow-up, cell-based, cherry pick 3, flow cytometry (AID 488823); settings: inactive by the depositor's call
Sequence (P14904 whole entry): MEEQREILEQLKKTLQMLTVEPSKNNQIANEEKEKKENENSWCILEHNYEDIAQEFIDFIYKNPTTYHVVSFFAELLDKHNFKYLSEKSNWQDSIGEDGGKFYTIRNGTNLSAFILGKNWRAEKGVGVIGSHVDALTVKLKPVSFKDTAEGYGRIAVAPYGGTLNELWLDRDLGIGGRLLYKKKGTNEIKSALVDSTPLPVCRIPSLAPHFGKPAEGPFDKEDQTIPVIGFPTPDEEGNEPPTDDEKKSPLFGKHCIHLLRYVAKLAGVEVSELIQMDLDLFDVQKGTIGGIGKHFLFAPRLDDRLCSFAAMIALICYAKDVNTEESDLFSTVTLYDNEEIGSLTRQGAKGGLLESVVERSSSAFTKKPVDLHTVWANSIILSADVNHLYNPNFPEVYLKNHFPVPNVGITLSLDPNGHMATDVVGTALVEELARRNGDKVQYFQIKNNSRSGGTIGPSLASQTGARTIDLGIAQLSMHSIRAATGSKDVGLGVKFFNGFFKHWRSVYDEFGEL
Output true (1) for records whose EC50 is lower than 90 µM, false (0) for records at or above 90 µM.

[
  {
    "compound": "CCC(C)Nc1nc(N)c([N+](=O)[O-])c(Nc2cc(OC)ccc2OC)n1 (configuration not stated)",
    "qualitative_label": "true (1)"
  },
  {
    "compound": "Cn1cccc1C(=O)Nc1nc(-c2ccccn2)cs1 [SMR000064459]",
    "qualitative_label": "true (1)"
  },
  {
    "compound": "Oc1ccc(Cl)c2cccnc12 [MLS002695956]",
    "qualitative_label": "false (0)"
  },
  {
    "compound": "COc1cccc2c(Cl)c(CCCl)c(C)nc12 [MLS000720591]",
    "qualitative_label": "true (1)"
  },
  {
    "compound": "CCC(C)Nc1nc(N)c([N+](=O)[O-])c(Nc2ccccc2OC)n1 (configuration not stated) [SMR000434817]",
    "qualitative_label": "true (1)"
  },
  {
    "compound": "CCOC(=O)CS(=O)(=O)c1nc(-c2ccccc2)cc(C(F)(F)F)n1",
    "qualitative_label": "true (1)"
  }
]

Switching to the query record.
State whether 90 µM exceeds EC50 recorded for CCc1sc(C(=O)Nc2nc(-c3ccccn3)cs2)cc1C [SMR001314827] .
false (0)

====

biological target: Vacuolar aminopeptidase 1 (Saccharomyces cerevisiae (strain ATCC 204508 / S288c)); test: LAP4-GFP modulation potency, analog picks, SAR follow-up, cell-based, cherry pick 3, flow cytometry (AID 488823)
quantity_measured: EC50
# output: numeric value plus its unit

Write down the reported EC50 (system: Vacuolar aminopeptidase 1 (Saccharomyces cerevisiae (strain ATCC 204508 / S288c))) of `NC(=O)c1ccnc2c(O)cccc12`
35.4 µM
